- subject.of.test: Recombinantly produced human furin (Homo sapiens, UniProt P09958)
- Construct: made in house
- Sequence (P09958 108-794): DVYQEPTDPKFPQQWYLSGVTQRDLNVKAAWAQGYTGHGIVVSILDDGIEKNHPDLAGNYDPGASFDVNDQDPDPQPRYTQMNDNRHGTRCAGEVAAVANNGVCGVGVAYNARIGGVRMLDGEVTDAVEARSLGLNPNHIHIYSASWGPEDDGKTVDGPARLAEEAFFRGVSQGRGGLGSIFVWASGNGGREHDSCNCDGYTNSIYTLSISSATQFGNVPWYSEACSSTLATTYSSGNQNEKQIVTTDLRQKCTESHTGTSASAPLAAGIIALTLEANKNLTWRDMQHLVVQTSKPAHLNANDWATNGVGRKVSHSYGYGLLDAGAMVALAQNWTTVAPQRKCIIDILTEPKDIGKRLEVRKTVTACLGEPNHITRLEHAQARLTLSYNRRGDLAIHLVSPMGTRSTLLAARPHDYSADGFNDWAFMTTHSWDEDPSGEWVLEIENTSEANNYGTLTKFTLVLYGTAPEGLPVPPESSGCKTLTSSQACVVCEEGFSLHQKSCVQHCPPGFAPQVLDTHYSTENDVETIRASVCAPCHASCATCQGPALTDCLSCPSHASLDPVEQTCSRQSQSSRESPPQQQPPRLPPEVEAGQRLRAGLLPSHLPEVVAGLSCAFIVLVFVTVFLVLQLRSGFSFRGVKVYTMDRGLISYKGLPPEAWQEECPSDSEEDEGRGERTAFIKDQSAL
- assay.explanation: Enzyme kinetic studies to determine the inhibitory effect on furin (fluorogenic substrate Pyr-Arg-Thr-Lys-Arg-AMC)
- Assay type: biochemical
- condition.label: Table 3; methods as in practical embodiment 6; read-out: Ki for the inhibition of furin
parameter.measured: pKi
Expect pKi as a plain number equal to -log10 of the molar concentration.

Consider the reported pKi for these compounds:
{"columns": ["compound", "value.reported"],
 "data": [
  ["CC(C)C(NC(=O)C(N)CCCNC(=N)N)C(=O)NC(CCCNC(=N)N)C(=O)NCc1ccc(C(=N)N)cc1 (stereo not shown) [Inhibitor 26]", 8.12],
  ["N=C(N)NCCCC(NC(=O)Cc1ccccc1)C(=O)NC(CN)C(=O)NC(CCCCN)C(=O)NCc1ccc(C(=N)N)cc1 (stereo not shown) [Inhibitor 39]", 8.43],
  ["CC(C)C(NC(=O)C(CCCNC(=N)N)NC(=O)Cc1ccccc1)C(=O)NC(CCCNC(=N)N)C(=O)NCC1CCNCC1 (stereo not shown) [Inhibitor 15]", 5.01]
]}

Exercise: Lookup: pKi / Recombinantly produced human furin (Homo sapiens, UniProt P09958) / CCCCCCCCCCCCCC(=O)NC(CCCNC(=N)N)C(=O)NC(C(=O)NC(CCCNC(=N)N)C(=O)NCc1ccc(C(=N)N)cc1)C(C)C (stereo not shown) [Inhibitor 22]
Key: 7.24
